Read-out: Tumor necrosis factor receptor superfamily member 6 (Homo sapiens)
assay comment: LTEA_HepaRG_FAS: Life Technologies and Expression Analysis (LTEA) Assay for Fas cell surface death receptor (FAS) using HepaRG (AID 2283447)
run conditions: mRNA level, 48 h; actives raise or lower the signal
Procedure: LTEA_HepaRG is a cell based, multiplexed-readout assay that uses HepaRG, a human liver cell line, with measurements taken at 48 hours after chemical dosing on a 96-well plate.LTEA_HepaRG_FAS is one of 102 assay component(s) measured in the LTEA HepaRG cell culture assay. It is a marker of Cell proliferation, survival, death.Data from the assay component LTEA_HepaRG_FAS was analyzed into 1 endpoint. […]
The source made the active and inactive calls. The calls were made as follows: active = hit-call score of the fitted dose curve at least 0.9, where 1 is the maximum; inactive = score below 0.9.
parameter measured: outcome

Examples with answers:
{"compound": "Nc1ccc(Oc2ccc(N)cc2)cc1", "meas value": "inactive"}
{"compound": "CCC(C)c1ccc(O)cc1 (configuration not stated)", "meas value": "inactive"}
{"compound": "O=C(O)C1C2CCC(O2)C1C(=O)O (configuration not stated)", "meas value": "inactive"}
{"compound": "c1ccc(C2CO2)cc1 (configuration not stated)", "meas value": "inactive"}
{"compound": "O=C(Oc1ccc(Br)cc1)N1CCN2CCC1CC2", "meas value": "inactive"}

## Input So what does the record say about outcome for CCN(CC)N=O ?
## Output inactive

## Input So what does the record say about outcome for CCCCCOC(=O)c1ccccc1C(=O)OCCCCC ?
## Output inactive

## Input So what does the record say about outcome for Oc1ccccc1Cl ?
## Output inactive

## Input So what does the record say about outcome for Nc1cc(Cl)cc(C(=O)O)c1Cl ?
## Output inactive

## Input So what does the record say about outcome for Clc1ccccc1Cl ?
## Output inactive

## Input So what does the record say about outcome for Clc1ccc(C(c2ccc(Cl)cc2)C(Cl)Cl)cc1 ?
## Output inactive

## Input So what does the record say about outcome for COP(=S)(OC)SCN1C(=O)c2ccccc2C1=O ?
## Output inactive

###

Read-out: Caspase-3 (Homo sapiens) (UniProt P42574)
Sequence (P42574 whole entry, looked up): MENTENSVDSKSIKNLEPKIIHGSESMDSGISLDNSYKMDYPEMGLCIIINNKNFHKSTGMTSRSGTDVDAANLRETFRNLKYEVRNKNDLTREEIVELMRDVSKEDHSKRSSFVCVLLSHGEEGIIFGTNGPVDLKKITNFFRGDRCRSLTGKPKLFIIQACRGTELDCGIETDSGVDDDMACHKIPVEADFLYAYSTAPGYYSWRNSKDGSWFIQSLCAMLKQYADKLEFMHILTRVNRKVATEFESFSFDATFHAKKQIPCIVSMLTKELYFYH
assay comment: LTEA_HepaRG_CASP3: Life Technologies and Expression Analysis (LTEA) Assay for cysteine-aspartic acid protease (CASP3) using HepaRG (AID 2283477)
run conditions: mRNA level, 48 h; actives raise or lower the signal
Calls of active or inactive are those of the source. The calls were made as follows: active = hit-call score of the fitted dose curve at least 0.9, where 1 is the maximum; inactive = score below 0.9.
Respond using exactly one of the listed classes: 1 (active), -1 (inactive)

{"compound": "CCCCCCCCCCCCCN1CC(C)OC(C)C1 (stereo not given)", "discrete label": -1}
{"compound": "CC(C)N(Cc1ccccc1)C(=O)C(C)(C)C", "discrete label": -1}
{"compound": "CCCSC(=O)N(CCC)CCC", "discrete label": -1}
{"compound": "CCN(CC)CCO", "discrete label": -1}
{"compound": "CN(C)c1ccccc1", "discrete label": -1}

## Input Given OCCOCCO , state the outcome it received in this test.
## Output -1

## Input Given CCC12COCN1COC2 , state the outcome it received in this test.
## Output -1

## Input Given O=C(O)C1C2CCC(O2)C1C(=O)O (stereo not given) , state the outcome it received in this test.
## Output -1

## Input Given CCC[CH2][Sn]([Cl])([CH2]CCC)[CH2]CCC , state the outcome it received in this test.
## Output -1

## Input Given Clc1ccc(Cl)c(Cl)c1 , state the outcome it received in this test.
## Output 1
